Origin of values: ChEMBL document CHEMBL1154759

biological target: Cyclin-dependent kinase 2/cyclin A (Homo sapiens); assay: Inhibition of human CDK2/Cyclin A by ELISA
pIC50: −log10 of the molar value.
RECORDED_METRIC: pIC50

A = COc1cc2c(C)cc3c(c2cc1OC)C(=O)NC3=O
B = Cn1cc(C2=C(c3ccc(Cl)cc3Cl)C(=O)NC2=O)c2ccccc21 [SB-216763]
# input Quick one: lower pIC50, A or B ? Give the label of your selection.
# output A
